These entries and their values trace back to patent US20210388087A1.

# experimental_target: T1, Human CD137 ECD (human)
# T1 construct: also called 4-1BB
# T1 sequence (chain, as listed by the source limits assumed): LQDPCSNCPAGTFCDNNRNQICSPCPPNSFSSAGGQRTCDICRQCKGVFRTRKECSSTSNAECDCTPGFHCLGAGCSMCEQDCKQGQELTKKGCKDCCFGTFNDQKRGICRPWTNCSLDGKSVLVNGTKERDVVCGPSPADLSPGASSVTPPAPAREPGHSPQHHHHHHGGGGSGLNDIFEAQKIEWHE
# test_details: single mutant vs template dBBDu183H
recorded_metric: fold change of affinity (fold)
Kindly answer with a numeric value in fold, unit omitted.

H183/L072 VH N31W (antibody, name in Kabat numbering, V domains shown) VH: QVQLVESGGGLVQPGRSLRLSCAASGFTFSWAWMHWVRQAPGKGLEWVAQIKDKGNAYAAYYAPSVKGRFTISRDDSKNSIYLQMNSLKTEDTAVYYCHYVHYASASTVLPAFGVDAWGQGTTVTVSS VL: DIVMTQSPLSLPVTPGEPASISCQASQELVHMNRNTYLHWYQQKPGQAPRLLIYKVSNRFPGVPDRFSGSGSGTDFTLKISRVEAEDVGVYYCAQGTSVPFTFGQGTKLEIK: 0.3

Continue with the next binder.
In plain terms, H183/L072 VH S62L (antibody, name in Kabat numbering, V domains shown) VH: QVQLVESGGGLVQPGRSLRLSCAASGFTFSNAWMHWVRQAPGKGLEWVAQIKDKGNAYAAYYAPLVKGRFTISRDDSKNSIYLQMNSLKTEDTAVYYCHYVHYASASTVLPAFGVDAWGQGTTVTVSS VL: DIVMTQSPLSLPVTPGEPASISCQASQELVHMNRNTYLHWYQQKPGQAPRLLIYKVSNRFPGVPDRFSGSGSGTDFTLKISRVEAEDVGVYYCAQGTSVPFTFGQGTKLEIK has a documented fold change of affinity of 0.9
